System: NCI-H460
Test: Potentiation of 17-AAG-induced antiproliferative activity in HSP27-knockdown human NCI-H460 cells at 10 uM after 24 hrs by EZ-CYTOX cell viability assay
Type: functional, cell-based
Active and inactive are the calls of the source. No cut-off for these calls is given here.
Possible outcomes: 1 (active), 0 (inactive)

- Cc1cc(=O)c2c(O)cc(OCC3CS3)cc2o1 (stereo not given): 0
- Cc1cc(=O)c2c(OCC3CS3)cc(OCC3CS3)cc2o1 (stereo not given): 0
- COc1cc(OCC2CS2)c2c(=O)c3ccccc3oc2c1 (stereo not given): 0
- O=c1c2ccccc2oc2cc(OCC3CS3)cc(OCC3CS3)c12 (stereo not given): 1
- O=c1cc(-c2ccccc2)oc2cc(OCC3CS3)cc(OCC3CS3)c12 (stereo not given): 1

These data points were gathered from ChEMBL document CHEMBL4130424.
